- system name: Muscarinic acetylcholine receptor M1 (Homo sapiens) (UniProt P11229)
- Sequence (whole entry): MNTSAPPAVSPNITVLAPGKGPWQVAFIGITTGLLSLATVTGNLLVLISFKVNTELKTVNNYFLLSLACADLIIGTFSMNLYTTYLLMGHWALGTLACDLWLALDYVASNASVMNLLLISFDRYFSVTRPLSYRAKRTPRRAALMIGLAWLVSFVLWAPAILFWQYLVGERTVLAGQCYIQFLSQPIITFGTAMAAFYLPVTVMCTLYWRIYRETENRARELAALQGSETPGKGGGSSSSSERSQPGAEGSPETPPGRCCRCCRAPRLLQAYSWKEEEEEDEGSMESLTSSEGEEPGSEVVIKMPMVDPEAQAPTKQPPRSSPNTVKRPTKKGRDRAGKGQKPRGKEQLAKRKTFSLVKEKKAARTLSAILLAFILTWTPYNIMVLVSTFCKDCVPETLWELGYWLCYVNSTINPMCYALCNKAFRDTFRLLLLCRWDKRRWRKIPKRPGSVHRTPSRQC
- protocol summary: Positive allosteric modulation of human muscarinic M1 receptor expressed in CHO cells assessed as effect on acetylcholine-induced calcium mobilization by FLIPR assay
- Format: functional, cell-based
log10(IP) for assorted compounds
result type: log10(IP) (log10 of the value in nM)

{"columns": ["compound", "log10(IP)"],
 "data": [
  ["CN(C)c1ccc(/C=C/Cn2cc(C(=O)O)c(=O)c3cccc(F)c32)cc1", 2.93],
  ["O=C(O)c1cn(Cc2ccc3ccccc3n2)c2cccc(F)c2c1=O", 2.95],
  ["O=C(O)c1cn(C/C=C/c2ccccn2)c2c(F)cccc2c1=O", 3.72],
  ["O=C(O)c1cn(CC#Cc2ccccc2)c2c(F)cccc2c1=O", 3.53],
  ["O=C(O)c1cn(Cc2ccc3c(c2)CCC3O)c2cccc(F)c2c1=O (stereo unspecified)", 1.99],
  ["O=C(O)c1cn(C/C=C/c2ccccc2F)c2c(F)cccc2c1=O", 2.38]
]}

----------
IP for assorted molecules
- system name: Muscarinic acetylcholine receptor M1 (Homo sapiens) (UniProt P11229)
- protocol summary: Positive allosteric modulation of human muscarinic M1 receptor expressed in CHO cells assessed as effect on acetylcholine-induced calcium mobilization by FLIPR assay
- Format: functional, cell-based

{"columns": ["chemical string", "result units", "comparison operator", "IP"],
 "data": [
  ["O=C(O)c1cn(C/C=C/c2ccncc2)c2c(F)cccc2c1=O", "nM", "=", 610],
  ["O=C(O)c1cn(Cc2ccc3ccccc3c2)c2cccc(F)c2c1=O", "nM", "=", 69],
  ["O=C(O)c1cn(Cc2ccc3c(c2)OCCO3)c2cccc(F)c2c1=O", "nM", "=", 84],
  ["Cn1ncc2cc(Cn3cc(C(=O)O)c(=O)c4c(F)cccc43)ccc21", "nM", "=", 72],
  ["O=C(O)c1cn(Cc2ccc3ccccc3c2)c2c(F)cccc2c1=O", "nM", "=", 80],
  ["COc1ccc(/C=C/Cn2cc(C(=O)O)c(=O)c3cccc(F)c32)cc1", "nM", "=", 380],
  ["O=C(O)c1cn(Cc2ccc3ncccc3c2)c2cccc(F)c2c1=O", "nM", "=", 459],
  ["O=C(O)c1cn(Cc2ccc3ccccc3c2)c2c(F)ccc(F)c2c1=O", "nM", "=", 266],
  ["O=C(O)c1cn(C/C=C/c2cccnc2)c2c(F)cccc2c1=O", "nM", ">", 10000],
  ["N#Cc1ccc(/C=C/Cn2cc(C(=O)O)c(=O)c3cccc(F)c32)cc1", "nM", "=", 1000],
  ["O=C(O)c1cn(C/C=C/c2ccc(F)cc2)c2c(F)cccc2c1=O", "nM", "=", 120],
  ["Cc1ccc(/C=C/Cn2cc(C(=O)O)c(=O)c3cccc(F)c32)cc1", "nM", "=", 910],
  ["O=C(O)c1cn(Cc2ccc3[nH]ncc3c2)c2cccc(F)c2c1=O", "nM", "=", 104],
  ["O=C1Cc2cc(Cn3cc(C(=O)O)c(=O)c4c(F)cccc43)ccc2N1", "nM", "=", 81],
  ["COc1ccccc1/C=C/Cn1cc(C(=O)O)c(=O)c2cccc(F)c21", "nM", ">", 10000],
  ["O=C(O)c1cn(C/C=C/c2ccc(Cl)cc2)c2c(F)cccc2c1=O", "nM", "=", 320],
  ["CN1CCCc2cc(Cn3cc(C(=O)O)c(=O)c4c(F)cccc43)ccc21", "nM", "=", 624]
]}
